biological target: Islr2, AVEXIS protein; experiment: method not stated; the filers' own unpublished determination ('in preparation'), used to calibrate the AVEXIS screen
test.readout: Kd (µM)
Response body: numeric value in µM, unit text excluded.

So what does the record say about Kd for Vasn (Slit-like2), AVEXIS protein ? 12
